Origin of the recorded values: PubChem BioAssay (NCATS)

Molecular target: Estrogen receptor (Homo sapiens) (UniProt P03372)
Sequence (P03372 whole entry, looked up): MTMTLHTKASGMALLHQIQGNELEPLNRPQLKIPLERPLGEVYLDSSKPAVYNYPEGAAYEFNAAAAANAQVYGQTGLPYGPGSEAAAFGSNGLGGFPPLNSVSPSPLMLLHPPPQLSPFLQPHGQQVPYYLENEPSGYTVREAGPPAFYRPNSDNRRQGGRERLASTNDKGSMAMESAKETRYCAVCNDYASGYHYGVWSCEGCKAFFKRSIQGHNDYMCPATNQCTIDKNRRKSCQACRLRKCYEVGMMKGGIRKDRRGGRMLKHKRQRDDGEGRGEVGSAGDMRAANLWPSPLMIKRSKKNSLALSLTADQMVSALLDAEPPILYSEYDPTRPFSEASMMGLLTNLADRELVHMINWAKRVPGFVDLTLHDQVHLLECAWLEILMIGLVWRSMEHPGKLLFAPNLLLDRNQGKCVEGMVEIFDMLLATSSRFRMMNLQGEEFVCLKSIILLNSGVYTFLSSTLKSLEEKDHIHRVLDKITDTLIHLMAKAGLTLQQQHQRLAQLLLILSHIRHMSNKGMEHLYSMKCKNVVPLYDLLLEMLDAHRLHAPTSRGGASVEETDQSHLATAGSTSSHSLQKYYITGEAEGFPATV
Experiment: qHTS assay for small molecule antagonists of estrogen receptor alpha signaling (AID 588513); further: on the % scale 0 is the no-effect control and ±100 the full control effect
Settings: ER-alpha-UAS-bla HEK293, beta-lactamase ratio, antagonist mode; series mostly up to 76.9 µM
Inconclusive results are not listed. Activity calls are given as the source filed them. The call rests on the fitted dose curve; in most records, active means well fitted curve in the direction sought with a large enough effect in the signal ratio, with a control signal flat (not every such curve was filed as active); inconclusive means small, poorly fitted or top-dose-only effect, or effect the other way, or a change in a side signal; inactive means no such curve, though single readings can be large or run the other way; the % refers to the signal ratio.
testReadout: outcome

Nc1ncnc2c1ncn2[C@H]1CC[C@@H](CO)O1 inactive
NCCN inactive
C[C@H](CCC(=O)O)[C@H]1CC[C@H]2[C@@H]3[C@H](O)C[C@@H]4C[C@H](O)CC[C@]4(C)[C@H]3C[C@H](O)[C@]12C inactive

---

Reported max response by item:
Molecular target: Peroxisome proliferator-activated receptor alpha (Homo sapiens)
Test: qHTS assay for small molecule agonists of the peroxisome proliferator-activated receptor alpha (PPARalpha) signaling pathway (AID 651778); further: % of control where 0% means no effect
Details: PathHunter PPARalpha complementation, chemiluminescence, 6 h; active compounds read high
Excerpt: National Center for Advancing Translational Sciences [NCATS] NIH Chemical Genomics Center [NCGC] U.S. Environmental Protection Agency [EPA] National Institutes of Environmental Health Sciences [NIEHS] National Toxicology Program [NTP] The Peroxisome proliferator-activated receptors (PPARs) are lipid-activated transcription factors of the nuclear receptor superfamily with three distinct subtypes (alpha, garmma and beta/delta). […]
Please reply with the bare figure in % and do not write the unit itself.

molecule	max response, %
NCCO/C=C/[C@H](N)C(=O)O	2.79

Q. Can you look up the measured max response of C=CC(C)(O)CC/C=C(\C)CCC=C(C)C (stereo not given) for me?
A. -0.214

Q. Query "C[Si](C)(C)O[Si](C)(C)C" next
A. -0.124

Q. Query "CC[C@H]1OC(=O)[C@H](C)[C@@H](O[C@H]2C[C@@](C)(OC)[C@@H](O)[C@H](C)O2)[C@H](C)[C@@H](O[C@@H]2O[C@H](C)C[C@H](N(C)C)[C@H]2O)[C@](C)(O)C[C@@H](C)CN(C)[C@H](C)[C@@H](O)[C@]1(C)O" next
A. -5.78

Q. Query "CO/N=C(/C(=O)N[C@@H]1C(=O)N2C(C(=O)O)=C(COC(N)=O)CS[C@H]12)c1ccco1" next
A. -0.921

Q. Query "C/C=C/C=C/C(=O)O" next
A. 0.184

Q. Query "ClC(Cl)Cl" next
A. 0.366

Q. Query "N[C@@H](Cc1cc(I)c(Oc2ccc(O)c(I)c2)c(I)c1)C(=O)O" next
A. -3.23

Q. Query "O=P(O)(O)O" next
A. -4.49

Q. Query "Nc1nccs1" next
A. -4.35

Q. Query C=C1C(CCl)(CCl)C2(Cl)C(Cl)C(Cl)C1(Cl)C2(Cl)Cl (stereo not given) next
A. 19

Q. Query "[O-][N+](=Nc1ccccc1)c1ccccc1" next
A. 10.8

Q. Query "Cc1ccc(S(=O)(=O)NCl)cc1" next
A. -0.128

Q. Query "OCc1ccccc1" next
A. 2.92

Q. Query "OCl" next
A. -2.41
